Test: qHTS assay to identify small molecule agonists of the estrogen receptor alpha (ER-alpha) signaling pathway in the presence of an antagonist - cell viability counter screen (AID 1259386);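 further: cells exposed to compounds for 22 h at 37 °C before the viability read; nearly all actives have a fitted effect of over 30% in size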
Condition details: VM7Luc4E2 viability, CellTiter-Fluor fluorescence, 22 h; series mostly up to 92.4 µM
Inconclusive results are not listed. The source made the active and inactive calls. The call rests on the fitted dose curve; in most records, active means well fitted cell-killing curve with a large enough effect in the repeat runs; inconclusive means weak or mixed curves, or effect the other way; inactive means no such curve, though single readings can be large or run the other way.
Quantity kind: activity change, negative = cytotoxicity

Look over these answered cases.
-- ask # lookup: activity change, negative = cytotoxicity of CC(CC=O)CCCC(C)(C)O (stereo unspecified)
-- reply inactive

-- ask Now consider `O=C(O)c1cc(Cl)cc([N+](=O)[O-])c1Cl` .
-- reply inactive

-- ask Now consider CC(C(=O)O)c1ccc2c(c1)CC(=O)c1ccccc1S2 (stereo unspecified) .
-- reply inactive

-- ask Now consider `COc1ccc2c(c1)C(=O)N(CCc1ccc(S(=O)(=O)NC(=O)NC3CCCCC3)cc1)C(=O)C2(C)C` .
-- reply inactive

Further cases:
-- ask # lookup: activity change, negative = cytotoxicity of OCCCCC(O)CO (stereo unspecified)
-- reply inactive

-- ask Now consider `C=C(C)C(=O)OCCNC(C)(C)C` .
-- reply inactive

Data provenance is PubChem BioAssay (Tox21).
